assay-procedure: Solubility limit of TBB in incubation buffer
Format: physicochemical
condition-set: potassium phosphate buffer, pH 7.4
measured-property: solubility

stdin: Given the compound CCCCC(CC)COC(=O)c1cc(Br)c(Br)c(Br)c1Br (stereo not shown) [TBB, 2-ethylhexyl-2,3,4,5-tetrabromobenzoate] , what is its reported solubility?
stdout: ~30 µM
